System: K-562 cells
assay_details: Cell growth inhibition assay (CellTiter-Glo), K-562
Assay type: cell-based, human
run_conditions: Homo sapiens, K562
Reported values of IC (TGI) for individual entries

Worked examples, 3 compounds total:
COc1ncc(-n2nc(C)c3c2C(=O)N(c2cc(C)c(=O)n(C)c2)C3c2ccc(Cl)cc2)c(OC)n1 (racemic) [Example 52] | > 10 µM
Cc1nn(-c2ccnn2C)c2c1C(c1ccc(Cl)cc1)N(c1cc(C)c(=O)n(C)c1)C2=O (racemic) [Example 74] | > 10 µM
COCc1nn(C2CC2)c2c1C(c1ccc(Cl)cc1)N(c1cc(C)c(=O)n(C)c1)C2=O (racemic) [Example 132] | > 10 µM

Now for a further compound.
Qu. Requested field: IC (TGI). Item: CNc1cc(N2C(=O)c3c(c(C)nn3C3CC3)C2c2ccc(Cl)cc2)nn2c(C)nnc12 (racemic) [Example 113]
Ans. > 10 µM

###

The following are reported GI50 results, target or system K-562 cells.
Report the value in nM with no unit label.

Cc1nn(C2CN(C)C2)c2c1C(c1ccc(Cl)cc1)N(c1cc(C)c3nnc(C)n3c1)C2=O (stereo not shown) [Example 157] | 534
CC(=O)Nc1cc(N2C(=O)c3c(c(C)nn3C3CC3)C2c2ccc(Cl)cc2)nn2c(C)nnc12 (stereo not shown) [Example 126] | 4150

Qu. Request: GI50, test system K-562 cells, entry Cc1nn(-c2ccnn2C)c2c1C(c1ccc(Cl)cc1)N(c1cc(C)c3nnc(C)n3c1)C2=O (stereo not shown) [Example 90]
Ans. 276

Qu. Request: GI50, test system K-562 cells, entry Cc1cc(N2C(=O)c3nn(C(C)C)c(C)c3C2c2ccc(Cl)cc2F)cn2c(C)nnc12 (stereo not shown) [Example 169]
Ans. 276

###

The following are reported GI50 results, target or system MV-4-11 cells.
Report the value in nM with no unit label.

Worked examples, 4 molecules total:
COc1ncc(-n2nc3c(c2C(C)C)C(c2ccc(Cl)cc2)N(c2cc(C)c4nnc(C)n4c2)C3=O)c(OC)n1 (centres unmarked) | 8.55
Cc1cc(N2C(=O)c3nn(C(C)C)c(C)c3C2c2ccc(F)cc2F)cn2c(C)nnc12 (centres unmarked) | 42.2
CC(=O)N1CC(n2nc(C)c3c2C(=O)N(c2cc(C)c4nnc(C)n4c2)C3c2ccc(Cl)cc2)C1 (centres unmarked) | 59
COCc1nn(C2CC2)c2c1C(c1ccc(Cl)cc1)N(c1cc(C)c(=O)n(C)c1)C2=O (racemic) | 52.3

Qu. Requested field: GI50. Item: Cc1cc(N2C(=O)c3c(cnn3C(C)C)C2c2ccc(Cl)cc2)cn(C)c1=O (centres unmarked)
Ans. 53.4

Qu. Requested field: GI50. Item: Cc1c2c(nn1C)C(=O)N(c1cc(Cl)c(=O)n(C)c1)[C@@H]2c1ccc(Cl)cc1
Ans. 71.1

Qu. Requested field: GI50. Item: CCc1nn(CCO)c2c1C(c1ccc(Cl)cc1)N(c1cc(C)c3onc(C)c3c1)C2=O (centres unmarked)
Ans. 348

Qu. Requested field: GI50. Item: COc1ncccc1-n1nc2c(c1C)C(c1ccc(Cl)cc1F)N(c1cc(C)c3nnc(C)n3c1)C2=O (centres unmarked)
Ans. 48.6
